Would you kindly list pEC50 for each of these compounds?
molecular target: human CB2R (Homo sapiens); construct: host or cells: CHO cells; assay: CB2R mediated modulation of cAMP synthesis; assay type: cell-based
Sequence (P34972 whole entry): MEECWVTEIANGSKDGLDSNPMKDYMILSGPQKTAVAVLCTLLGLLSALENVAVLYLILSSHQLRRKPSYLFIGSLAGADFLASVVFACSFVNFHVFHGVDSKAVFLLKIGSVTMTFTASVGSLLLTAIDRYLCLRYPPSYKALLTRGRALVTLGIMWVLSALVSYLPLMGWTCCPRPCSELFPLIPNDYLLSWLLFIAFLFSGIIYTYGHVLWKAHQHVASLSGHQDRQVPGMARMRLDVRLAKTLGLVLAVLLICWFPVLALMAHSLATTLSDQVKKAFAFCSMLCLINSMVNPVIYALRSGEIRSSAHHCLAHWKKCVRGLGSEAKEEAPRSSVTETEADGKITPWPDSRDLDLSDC
One number for each entry, as −log10 of the molar value.

Look over these answered cases.
CN(C1CCOCC1)C(C)(C)C(=O)Nc1cc(C2(CO)CCCC2)no1 : 7.68
Cc1ncc(C(C)(C)c2cc(NC(=O)C(C)(C)N(C)C3CCOCC3)on2)o1 : 7.82
CC(C)(CO)c1cc(NC(=O)C(C)(C)N2CCC(NS(C)(=O)=O)CC2)on1 : 8.15
CN(C1CC1)C(C)(C)C(=O)Nc1cc(C(C)(C)CO)no1 : 6.35

Kindly review the next compound as well.
Data request: Form field: pEC50 recorded for CN([C@@H]1CCN(S(C)(=O)=O)C1)C(C)(C)C(=O)Nc1cc(C(C)(C)CO)no1 with human CB2R (Homo sapiens) (enter value)
Data returned: 8.77
